- Particulars: method [a]: LC-MS at pH 2.7, 0.1% formic acid in water / acetonitrile gradient
Metric Name: LogP

INSERT INTO measurements (molecule, result) VALUES
  ('FC1(C2(Cc3c(Cl)cncc3Cl)CO2)CC1 (centres unmarked)', '2.93^[a]'),
  ('OC(Cc1ccncc1Cl)(Cn1cncn1)c1ccc2oc3ccccc3c2c1 (racemic)', '2.40^[a]'),
  ('CC(CF)(CF)C1(Cc2ccncc2Cl)CO1 (centres unmarked)', '2.16^[a]'),
  ('Fc1ncccc1CC1(C2(Cl)CC2)CO1 (centres unmarked)', '2.47^[a]'),
  ('Fc1cnccc1CC1(C2(F)CC2)CO1 (centres unmarked)', '1.63^[a]'),
  ('Fc1c(CC2(C3(F)CC3)CO2)ccnc1Cl (centres unmarked)', '2.53^[a]'),
  ('CC(CF)(CF)C1(Cc2ccncc2F)CO1 (centres unmarked)', '1.79^[a]'),
  ('O=C(Cc1ccncc1Cl)C1(Cl)CC1', '2.13^[a]'),
  ('FC1(C2(Cc3ccnc(Cl)c3)CO2)CC1 (centres unmarked)', '2.27^[a]'),
  ('Cc1cccc2cc(CC(=O)C3(Cl)CC3)c(Cl)nc12', '4.14^[a]'),
  ('CC(CF)(CF)C1(Cc2c(Cl)cncc2Cl)CO1 (centres unmarked)', '2.89^[a]');

----------
- Particulars: pH 2.7
Marks after values point to notes of the source that are not given here.
Metric Name: LogP

INSERT INTO assay_data (compound, metric_name, result) VALUES
  ('OC(Cc1cccnc1Cl)(Cn1cncn1)C1(Cl)CC1 (single isomer, unassigned) [Example I-95]', 'LogP', '1.81^[a]'),
  ('OC(CCc1ccccc1Cl)(Cc1ccncc1Cl)Cn1cncn1 (racemic)', 'LogP', '2.29^[a]'),
  ('OC(Cc1ccncc1Cl)(Cn1cncn1)C1(c2ccccc2)CC1 (racemic)', 'LogP', '2.23^[a]'),
  ('OC(Cc1ccnnc1Cl)(Cn1cncn1)C1(Cl)CC1 (stereo not shown)', 'LogP', '1.31^[a]'),
  ('CC(C)(F)C(O)(Cc1ccncc1Cl)Cn1cncn1 (racemic)', 'LogP', '1.20^[a]'),
  ('OC(Cc1ccnc(Cl)c1)(Cn1cncn1)C1(F)CC1 (stereo not shown)', 'LogP', '1.44^[a]'),
  ('OC(Cc1ccccc1F)(Cc1ccncc1Cl)Cn1cncn1 (stereo not shown)', 'LogP', '1.96^[a]');

----------
Recorded Eff. %, one value per entry.
- System: Puccinia recondita
- Protocol: Example B: in vivo preventive test on Puccinia recondita (brown rust on wheat)
- Particulars: 500 ppm of active ingredient; wheat plants, preventive spray; evaluated 11 days after inoculation
Metric Name: Eff. % (%)

INSERT INTO assay_data (molecule, metric_name, scale_unit, number) VALUES
  ('OC(Cc1cncc(Oc2ccc(Cl)cc2)n1)(Cn1cncn1)C1(Cl)CC1 (stereo not shown)', 'Eff. %', '%', 86),
  ('OC(Cc1cc(Cl)cnc1Cl)(Cn1cncn1)C1(Cl)CC1 (racemic)', 'Eff. %', '%', 100),
  ('OC(Cc1cc(Cl)ncc1Cl)(Cn1cncn1)C1(Cl)CC1 (stereo not shown)', 'Eff. %', '%', 97),
  ('OC(CCc1ccc(Cl)cc1)(Cc1ccncc1Cl)Cn1cncn1 (racemic)', 'Eff. %', '%', 98),
  ('OC(Cc1ccc(F)cc1)(Cc1ccncc1Cl)Cn1cncn1 (racemic)', 'Eff. %', '%', 81),
  ('OC(Cc1nccnc1I)(Cn1cncn1)C1(Cl)CC1 (stereo not shown)', 'Eff. %', '%', 97),
  ('OC(Cc1cccc(Cl)c1)(Cc1ccnc(Cl)c1F)Cn1cncn1 (racemic)', 'Eff. %', '%', 89),
  ('OC(Cc1ccc(Cl)nc1)(Cn1cncn1)C1(Cl)CC1 (stereo not shown)', 'Eff. %', '%', 100),
  ('OC(Cc1cc(F)ncc1Cl)(Cn1cncn1)C1(Cl)CC1 (racemic)', 'Eff. %', '%', 100),
  ('CC(CF)(CF)C(O)(Cc1ccnc(Cl)c1)Cn1cncn1 (stereo not shown)', 'Eff. %', '%', 97),
  ('OC(Cc1ccnc(Cl)c1F)(Cn1cncn1)c1cccnc1Cl (stereo not shown)', 'Eff. %', '%', 98),
  ('OC(Cc1c(Cl)cncc1Cl)(Cn1cncn1)C1(F)CC1 (racemic)', 'Eff. %', '%', 98),
  ('OC(COc1ccc(F)cc1)(Cc1ccncc1Cl)Cn1cncn1 (racemic)', 'Eff. %', '%', 98),
  ('CC1(C(O)(Cc2ccncc2Cl)Cn2cncn2)CC1 (stereo not shown)', 'Eff. %', '%', 100),
  ('OC(Cc1ccc(Cl)nc1Cl)(Cn1cncn1)C1(Cl)CC1 (stereo not shown)', 'Eff. %', '%', 94),
  ('OC(Cc1cc(Cl)ncc1F)(Cn1cncn1)C1(Cl)CC1 (stereo not shown)', 'Eff. %', '%', 97),
  ('OC(Cc1nccnc1Br)(Cn1cncn1)C1(Cl)CC1 (racemic)', 'Eff. %', '%', 94),
  ('OC(Cc1ccncn1)(Cn1cncn1)C1(Cl)CC1 (stereo not shown)', 'Eff. %', '%', 94),
  ('OC(Cc1cccnc1Cl)(Cn1cncn1)C1(Cl)CC1 (stereo not shown)', 'Eff. %', '%', 98);

----------
- Particulars: pH 2.7
Marks after values point to notes of the source that are not given here.
Metric Name: LogP

INSERT INTO measurements (compound, metric_name, result) VALUES
  ('OC(Cc1ccc(Cl)nc1)(Cn1cncn1)C1(Cl)CC1 (centres unmarked)', 'LogP', '1.84^[a]'),
  ('Cc1cc(C(O)(Cc2ccncc2Cl)Cn2cncn2)nn1C (racemic)', 'LogP', '0.84^[a]'),
  ('OC(Cc1nccnc1Br)(Cn1cncn1)C1(Cl)CC1 (racemic)', 'LogP', '1.96^[a]'),
  ('OC(Cc1cccnc1Cl)(Cn1cncn1)C1(Cl)CC1 (centres unmarked) [Example I-3]', 'LogP', '1.78^[a]'),
  ('OC(Cc1ncnc(Cl)c1Cl)(Cn1cncn1)C1(Cl)CC1 (centres unmarked)', 'LogP', '2.28^[a]');

----------
- Tested on: Botrytis cinerea
- Protocol: Example A: in vivo preventive test on Botrytis cinerea (grey mould)
- Particulars: 500 ppm of active ingredient; gherkin plants, preventive spray; evaluated 4 to 5 days after inoculation
Metric Name: Eff. %

INSERT INTO measurements (compound, metric_name, result) VALUES
  ('OC(Cc1ccc(Cl)cn1)(Cn1cncn1)C1(Cl)CC1 (racemic)', 'Eff. %', '99%'),
  ('OC(Cc1ccncc1Cl)(Cn1cncn1)C1(Cl)CC1 (stereo not drawn)', 'Eff. %', '100%'),
  ('OC(Cc1ncccc1Cl)(Cn1cncn1)C1(Cl)CC1 (stereo not drawn)', 'Eff. %', '94%'),
  ('OC(Cc1ccnc(Cl)c1Cl)(Cn1cncn1)C1(Cl)CC1 (racemic)', 'Eff. %', '100%'),
  ('OC(Cc1cc(F)ncc1Cl)(Cn1cncn1)C1(F)CC1 (racemic)', 'Eff. %', '100%'),
  ('OC(Cc1ccc(Cl)nc1)(Cn1cncn1)C1(Cl)CC1 (stereo not drawn)', 'Eff. %', '100%'),
  ('CC(C)(Oc1ccc(F)cc1)C(O)(Cc1ccncc1Cl)Cn1cncn1 (racemic)', 'Eff. %', '95%'),
  ('OC(Cc1nccnc1I)(Cn1cncn1)C1(Cl)CC1 (stereo not drawn)', 'Eff. %', '100%'),
  ('OC(Cc1cc(Cl)ncc1F)(Cn1cncn1)C1(Cl)CC1 (stereo not drawn)', 'Eff. %', '97%'),
  ('CC(CF)(CF)C(O)(Cc1ccnc(Cl)c1F)Cn1cncn1 (stereo not drawn)', 'Eff. %', '99%'),
  ('OC(Cc1cccnc1Cl)(Cn1cncn1)C1(Cl)CC1 (stereo not drawn)', 'Eff. %', '100%'),
  ('OC(Cc1ccncn1)(Cn1cncn1)C1(Cl)CC1 (stereo not drawn)', 'Eff. %', '100%'),
  ('OC(Cc1cc(Cl)ncc1Cl)(Cn1cncn1)C1(Cl)CC1 (stereo not drawn)', 'Eff. %', '98%'),
  ('CC(C)(F)C(O)(Cc1ccncc1Cl)Cn1cncn1 (racemic)', 'Eff. %', '100%'),
  ('OC(Cc1cc(Cl)cnc1Cl)(Cn1cncn1)C1(Cl)CC1 (racemic)', 'Eff. %', '100%');

----------
- Particulars: pH 2.7
Marks after values point to notes of the source that are not given here.
Recorded LogP, one value per entry.
Metric Name: LogP

INSERT INTO measurements (compound, result) VALUES
  ('OC(Cc1ccncc1Cl)(Cn1cncn1)c1ccc(Cl)nc1 (stereo not drawn) [Example I-13]', '1.26^[a]'),
  ('OC(Cc1cc(Cl)ncc1F)(Cn1cncn1)c1ccc(Cl)nc1 (stereo not drawn) [Example I-42]', '1.60^[a]'),
  ('OC(Cc1cccc(Cl)c1)(Cc1cc(Cl)ncc1F)Cn1cncn1 (racemic) [Example I-74]', '2.69^[a]'),
  ('CC(CF)(CF)C(O)(Cc1ccnc(Cl)c1F)Cn1cncn1 (stereo not drawn) [Example I-61]', '1.87^[a]'),
  ('OC(Cc1ccc2ccccc2n1)(Cn1cncn1)C1(Cl)CC1 (stereo not drawn) [Example I-1]', '1.64^[a]'),
  ('CC(CF)(CF)C(O)(Cc1cc(Cl)ncc1F)Cn1cncn1 (stereo not drawn) [Example I-44]', '1.89^[a]'),
  ('OC(Cc1ccnc(Cl)c1)(Cn1cncn1)c1ccc(Cl)nc1 (stereo not drawn) [Example I-38]', '1.38^[a]'),
  ('OC(Cc1ccncc1F)(Cn1cncn1)c1cccnc1Cl (stereo not drawn) [Example I-23]', '0.91^[a]'),
  ('OC(Cc1cc(Cl)nnc1Cl)(Cn1cncn1)C1(Cl)CC1 (stereo not drawn) [Example I-46]', '1.92^[a]');
